Entries annotated with measured fraction ligated
B1: minF1; a variant is named by its letters at N, in order (parent)
chain: GAGACCGCAACTGAAAAGTTGTTNNNNAANNNNNGGNTNAATTTCTGCACGTAGAAGCAAAAGGC

- Variants of: B1
- PROTOCOL SUMMARY: fraction ligated after 30 min (ligated reads / total reads); higher = more ligase activity
- REPORTED CONDITIONS: with F1*subA RNA substrate (template-directed ligation), 42 °C

Example entries and their recorded answers appear below.
- SEQ: "GAGACCGCAACTGAAAAGTTGTTATCAGAAATGGAGGTTAATTTCTGCACGTAGAAGCAAAAGGC [ATCAAATGGGT A28G G35A]"
  REPORTED RESULT: 0.00387
- SEQ: "GAGACCGCAACTGAAAAGTTGTATCAAAATGGTGGGTTGAATTTCTGCACGTAGAAGCAAAAGGC [TCAATGGTGTG T23A]"
  REPORTED RESULT: 0.00318
- SEQ: "GAGACCGCAACTGAAAAGTTGTTTCAGAAATGATGGGTTGATTTCTGCACGTAGAAGCAAAAGGC [TCAGATGATGT A40G]"
  REPORTED RESULT: 0.011
- SEQ: "GAGACCGCAACTGAAAAGTTGTTACAAAATGGAGGGTTGAATTTCTGCACGTAGAAGCAAAAGGC [ACAATGGAGTG]"
  REPORTED RESULT: 0.00318
- SEQ: "GAGACCGCAACTGAAAAGTTGTATCAGAAATGGATGGTTGATTTCTGCACGTAGAAGCAAAAGGC [TCAGATGGAGT T23A G35T A40G]"
  REPORTED RESULT: 0.0397
- SEQ: "GAGACCGCAACTGAAAAGTTGTTATCAAAAGATGGGTTGAATTTCTGCACGTAGAAGCAAAAGGC [ATCAAGATGTG]"
  REPORTED RESULT: 0.00503
- SEQ: "GAGACCGCAACTGAAAAGTTGTTTCAGAATGATGGGTTGAATTTCTGCACGTAGAAGCAAAAGGC [TCAGTGATGTG]"
  REPORTED RESULT: 0.00229
- SEQ: "GAGACCGCAACTGAAAAGTTGTTACAAAATGGATGGGTTGATTTCTGCACGTAGAAGCAAAAGGC [ACAATGGATGT A40G]"
  REPORTED RESULT: 0.0105
- SEQ: "GAGACCGCAACTGAAAAGTTGTTTCGAAATGGAGGGTTGAATTTCTGCACGTAGAAGCAAAAGGC [TCGATGGAGTG]"
  REPORTED RESULT: 0.00518
- SEQ: "GAGACCGCAACTGAAAAGTTGTATCAGAATGGATGGGTTGATTTCTGCACGTAGAAGCAAAAGGC [TCAGTGGATGT T23A A40G]"
  REPORTED RESULT: 0.0264

Inquiry: Output measured fraction ligated for this item: GAGACCGCAACTGAAAAGTTGTTTCAGAAATGGTGGGTTAATTTCTGCACGTAGAAGCAAAAGGC [TCAGATGGTGT]
Reply text: 0.00178

Inquiry: Return the recorded fraction ligated value; entry: GAGACCGCAACTGAAAAGTTGTTATAAAATGATGGGTTGAATTTCTGCACGTAGAAGCAAAAGGC [ATAATGATGTG]
Reply text: 0.00474

Inquiry: Query fraction ligated for GAGACCGCAACTGAAAAGTTGTTTAGAAATGATGGGTTGAATTTCTGCACGTAGAAGCAAAAGGC [TAGATGATGTG]
Reply text: 0.00308

Inquiry: Specify measured fraction ligated for GAGACCGCAACTGAAAAGTTGTTATCAGAAATGATGGTTGATTTCTGCACGTAGAAGCAAAAGGC [ATCAAATGAGT A28G G35T A40G] .
Reply text: 0.0046

Inquiry: Tell us which fraction ligated value is on record for GAGACCGCAACTGAAAAGTTGTTACAGAAATGGATGGTTAATTTCTGCACGTAGAAGCAAAAGGC [ACAGATGGAGT G35T]
Reply text: 0.014
